- METHOD: A549 lung cancer cell viability effects, profiling panel, resazurin fluorescence, 24 h, PK04 Diversity Set (AID 1171); note: test concentration not given here
- SETUP CONDITIONS: higher = more signal, called active from +8 up or from −8 down
Measured z-score, listed per entry for reference.
// print number alone

Task: Check the records and state z-score for CC(C)=C1C(=O)C(c2ccccc2)=C2CN3C(=O)N(CCc4ccccc4)C(=O)[C@]3(Cc3ccc(F)cc3)[C@H]21
Output: 0.0406

Task: Specify z-score for COc1ccc(OC[C@H]2Cc3c(-c4ccccc4)nc4c(c3CO2)CN(CCOc2ccccc2)CC4)cc1 and stop.
Output: -0.634

Task: Provide only the value of recorded z-score for CC(C)CON=C1C[C@@H](O)[C@@H](O)[C@@H]2[C@@H]3C(=O)N(Cc4ccccc4)C(=O)[C@@H]3CC[C@@H]12
Output: 0.676

Task: Dear colleague, please send me the reported z-score for C[C@@H](c1ccccc1)N1C(=O)[C@H]2[C@H]3[C@H](O)[C@H](O)CC(=NNC(=O)OCc4ccccc4)[C@H]3CC[C@H]2C1=O when you can.
Output: -0.0339

Task: Indicate its recorded z-score; the compound in question is CCCCCN1CC=CC23O[C@@H]4C=CCOC(=O)[C@@H]4[C@H]2C(=O)N(CCCCCCO)[C@@H]3C1=O (some centres not stated)
Output: 0.444

Task: Supply z-score value. Item: CC(=O)OC[C@H]1O[C@@H](ON=C(C)CCN2CCc3nc(-c4ccccc4)c(-c4ccccc4)cc3C2)[C@H](OC(C)=O)[C@@H](OC(C)=O)[C@@H]1OC(C)=O
Output: -0.282

Task: Note down z-score recorded for CC(C)[C@@H](OCc1ccccc1)[C@H](C)C=NOC[C@@H](C)[C@H](OCc1ccccc1)C(C)C
Output: -0.689

---

- Tested on: Human papillomavirus type 1a E7 protein (residues 1-88)
- METHOD: HPV1a E7 small-molecule binders, primary screen, biochemical, small-molecule microarray, residues 1-88, 635 nm (AID 1129)
- SETUP CONDITIONS: small-molecule microarray binding, fluorescence 635 nm; higher = more signal
Mark TRUE for reported composite z-score of 0.3 or greater; mark FALSE for anything smaller.

Example results:
O=C1C[C@@H](O)[C@@H](O)[C@@H]2[C@@H]3C(=O)N(c4ccc(F)cc4F)C(=O)[C@@H]3CC[C@@H]12    TRUE
CCOC(=O)CCN1C(=O)[C@H]2[C@H]3[C@H](O)[C@H](O)CC(=NNC(=O)OCc4ccc(OC)cc4)[C@@H]3CC[C@H]2C1=O    TRUE
CCCCCN1CC=CC23O[C@@H]4C=CCOC(=O)[C@@H]4[C@H]2C(=O)N(CCCCCCO)[C@@H]3C1=O (some centres undefined)    FALSE
NCCCCCNC(=O)[C@@H]1C[C@@H]2C(=O)N3CCC[C@H]3C(=O)N2[C@@H]1c1cccc(OCCO)c1    TRUE

Task: Kindly determine if composite z-score recorded for CCOC(=O)[C@H](Cc1ccccc1)NC(=O)CCC1CC(OC(=O)NCc2ccc3c(c2)OCO3)CC2(CCCC(COC(=O)NCC(c3ccccc3)c3ccccc3)O2)O1 (some centres undefined) is above or exactly 0.3.
Output: TRUE

Task: I'd appreciate it if you could say whether CCc1cc2c(nc1CC)CCN(CCC(C)=NOC[C@@H](O)COCc1ccco1)C2 has composite z-score at least equal to 0.3.
Output: FALSE

Task: Test whether the compound CC(C)CON=C1[C@H]2CCn3c(=O)n(-c4ccccc4)c(=O)n3[C@H]2[C@H](O)[C@@H]2O[C@H]12 records composite z-score of 0.3 or higher.
Output: FALSE
